- SYSTEM UNDER TEST: Son of Sevenless (SOS) (Homo sapiens, UniProt Q07889)
- Sequence (Q07889 564-1049 limits assumed): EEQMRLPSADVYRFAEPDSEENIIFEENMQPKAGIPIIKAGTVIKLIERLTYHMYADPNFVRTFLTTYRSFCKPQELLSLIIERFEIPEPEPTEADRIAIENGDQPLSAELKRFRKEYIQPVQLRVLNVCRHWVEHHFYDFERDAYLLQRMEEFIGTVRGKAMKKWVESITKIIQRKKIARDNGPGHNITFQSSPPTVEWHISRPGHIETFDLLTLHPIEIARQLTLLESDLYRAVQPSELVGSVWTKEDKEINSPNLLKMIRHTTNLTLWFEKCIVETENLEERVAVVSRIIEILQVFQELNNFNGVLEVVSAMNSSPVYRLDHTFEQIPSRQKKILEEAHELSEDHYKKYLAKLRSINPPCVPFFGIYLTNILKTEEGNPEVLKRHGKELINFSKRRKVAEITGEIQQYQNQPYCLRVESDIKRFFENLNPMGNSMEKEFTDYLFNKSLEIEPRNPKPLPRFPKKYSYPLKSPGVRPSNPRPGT
pKi: −log10 of the molar value.
READOUT LABEL: pKi

Request: pKi, test system Son of Sevenless (SOS) (Homo sapiens, UniProt Q07889), entry C[C@@H](Nc1nc(NCc2cccc(Cl)c2F)nc2c(C3=CCNCC3)cccc12)c1cccs1
5.30 to 6.00

Form: Entry = C[C@@H](Nc1nc(Nc2ccc(F)c(Cl)c2)nc2ccccc12)C(C)(C)C | System = Son of Sevenless (SOS) (Homo sapiens, UniProt Q07889) | pKi = ____
< 5.30

Short answer please: pKi, Son of Sevenless (SOS) (Homo sapiens, UniProt Q07889), entry C[C@@H](Nc1nc(Nc2cc(F)cc(C#N)c2)nc2ccccc12)C1CC1
< 5.30

Item: C[C@@H](Nc1nc(NCC2CCCCC2)nc2c(C3=CCNCC3)cccc12)c1cccs1 Test system: Son of Sevenless (SOS) (Homo sapiens, UniProt Q07889) Read-out: pKi Value: ?
5.30 to 6.00

Lookup: pKi / Son of Sevenless (SOS) (Homo sapiens, UniProt Q07889) / CC[C@@H](Nc1nc(Nc2cc(C)cc(F)c2)nc2c(CCN)cccc12)C1CC1
5.30 to 6.00

Next:
Could you share what pKi was measured for C[C@@H](Nc1nc(NCc2cccc(Cl)c2F)nc2c(CCN)cccc12)C(C)(C)C , tested on Son of Sevenless (SOS) (Homo sapiens, UniProt Q07889)?
5.30 to 6.00

Field: pKi (Son of Sevenless (SOS) (Homo sapiens, UniProt Q07889)). Entry: C[C@@H](Nc1nc(Nc2ccc(F)c(Cl)c2)nc2ccccc12)c1cccs1
< 5.30

// lookup pKi | system=Son of Sevenless (SOS) (Homo sapiens, UniProt Q07889) | key= CC[C@@H](Nc1nc(Nc2cc(F)cc(F)c2)nc2ccccc12)C1CC1
< 5.30
